assay: change in splice reporter luminescence, either direction, cell-based, HEK293, spliceosome inhibition project, primary screen (AID 1101); conditions: HEK293 splicing luciferase reporter, 24 h, higher = more signal, called active from +8 up or from −8 down;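 note: HEK293 cells carrying a splicing-competent luciferase reporter gene; test concentration not given here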

[
  {
    "structure_as_smiles": "Cc1ccc(S[C@]2(C(=O)NCC(F)(F)F)CC(=O)N(C3Cc4ccccc4C3)[C@@H]2c2ccc(CO)cc2I)cc1",
    "z-score": -0.426
  },
  {
    "structure_as_smiles": "COC(=O)C(CC#Cc1ccc2c(c1)[C@]1(C(=O)N2)[C@H](C(=O)N2CCCCCCC2)[C@H]2C(=O)O[C@H](c3ccccc3)[C@H](c3ccccc3)N2[C@@H]1c1ccccc1OCCO)C(=O)OC",
    "z-score": 0.13
  },
  {
    "structure_as_smiles": "C=CCNC(=O)[C@H]1[C@@H]2C(=O)O[C@@H](c3ccccc3)[C@@H](c3ccccc3)N2[C@@H](c2ccc(OCCO)cc2)[C@]12C(=O)N(C(=O)OCCOC)c1ccc(C#CC3(O)CCCCCC3)cc12",
    "z-score": -0.569
  }
]

* * *

assay: FRG1 expression reporter modulators in myotubes – cell-based, C2C12 myotubes, firefly/Renilla luciferase, luminescence, FRG1 inhibition for FSHD, primary screen (AID 1084); settings: FRG1 promoter luciferase, higher = more signal, called active from +8 up or from −8 down
measurement_name: z-score

[
  {
    "structure_as_smiles": "O=C1O[C@H](c2ccccc2)[C@H](c2ccccc2)N2[C@H]1[C@@H](C(=O)Nc1nc3ccccc3s1)[C@]1(C(=O)Nc3ccc(C#CC4=CCCCC4)cc31)[C@H]2c1ccc(OCCO)cc1",
    "experimental_result": 3.08
  },
  {
    "structure_as_smiles": "CN(C)CCCC[C@@H]1NC(=O)[C@@H]2C[C@H](C(=O)NCCCCCCN)[C@H](c3ccc(O)cc3)N2C1=O",
    "experimental_result": -0.0024
  },
  {
    "structure_as_smiles": "[N-]=[N+]=NCc1ccccc1C[C@]1(C(=O)N2CCOCC2)N=C(c2ccc(OCCCO)cc2)O[C@H]1c1ccccc1",
    "experimental_result": -3.67
  }
]

* * *

test: S. pombe growth modifiers, basal conditions – strain 972, OD600, 24 h, no modulator, primary screen (AID 1090);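 note: basal condition with compound alone and no growth modifier present; test concentration not given here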; conditions: S. pombe 972 growth, higher = more signal, called active from +8 up or from −8 down
Calls of active or inactive are those of the source.
z-score overview
measurement_name: z-score

[
  {
    "compound": "Cc1ccc(N2C(=O)c3ccccc3[C@](C)(C(=O)NCCN3CCOCC3)[C@@H]2c2ccc(CO)cc2)nc1",
    "measurement_name": "z-score",
    "experimental_result": "-0.822 (inactive)"
  },
  {
    "compound": "CC(c1ccccc1)C(O)C1C=CC2C(=O)N(c3ccccc3)C(=O)C2N1Nc1ccccc1F (centres undefined)",
    "measurement_name": "z-score",
    "experimental_result": "1.15 (inactive)"
  },
  {
    "compound": "CN1C(=O)C2C=CC(C(O)c3ccc(Br)cc3)N(Nc3ccccc3)C2C1=O (centres undefined)",
    "measurement_name": "z-score",
    "experimental_result": "-0.0449 (inactive)"
  },
  {
    "compound": "C[N+](C)(C)CCCC[C@@H]1NC(=O)[C@@H]2C[C@H](C(=O)NCCCCCCNC(=O)CS)[C@H](c3cccc(OCCO)c3)N2C1=O",
    "measurement_name": "z-score",
    "experimental_result": "-0.333 (inactive)"
  },
  {
    "compound": "O=C1C2C=CC(C(O)c3cccc4ccccc34)N(n3cnnc3)C2C(=O)N1Cc1ccccc1 (centres undefined)",
    "measurement_name": "z-score",
    "experimental_result": "-16.1 (active)"
  },
  {
    "compound": "[N-]=[N+]=Nc1ccccc1[C@@H]1OC(c2ccc(OCCCO)cc2)=N[C@]1(CCS(=O)(=O)c1ccccc1)C(=O)O",
    "measurement_name": "z-score",
    "experimental_result": "-3.97 (inactive)"
  },
  {
    "compound": "C=CC[C@@]1(C(=O)NCCN2CCOCC2)N=C(c2ccc(OCCCO)cc2)O[C@@H]1c1ccccc1CN=[N+]=[N-]",
    "measurement_name": "z-score",
    "experimental_result": "-1.18 (inactive)"
  },
  {
    "compound": "CCOC(=O)C[C@H]1[C@H](OC(=O)c2cc3ccccc3oc2=O)[C@@H](NC(=O)c2ccc3ccccc3c2)c2cc(OCCCO)ccc2N1C(=O)c1ccccc1",
    "measurement_name": "z-score",
    "experimental_result": "-1.05 (inactive)"
  },
  {
    "compound": "CC(C)C(CO)N1C(=O)[C@@H]2[C@H]3C(=O)OCC=C[C@H]3OC23C=CCN(c2ccc4ccccc4c2)C(=O)[C@@H]13 (some centres undefined)",
    "measurement_name": "z-score",
    "experimental_result": "-0.494 (inactive)"
  },
  {
    "compound": "Cc1ccc(S[C@]2(C(=O)NCCCN(C)C)CC(=O)N(Cc3ccccc3)[C@@H]2c2ccc(CO)cc2)cc1",
    "measurement_name": "z-score",
    "experimental_result": "-1.18 (inactive)"
  },
  {
    "compound": "O=C1O[C@H](c2ccccc2)[C@H](c2ccccc2)N2[C@H]1[C@@H](C(=O)NC[C@H](O)c1ccccc1)[C@]1(C(=O)Nc3ccc(C#CC4(O)CCCCCC4)cc31)[C@H]2c1ccccc1OCCO",
    "measurement_name": "z-score",
    "experimental_result": "1.27 (inactive)"
  },
  {
    "compound": "O=C1OCC=C[C@H]2OC34C=CCN(c5ccc6ccccc6c5)C(=O)[C@H]3N(CCO)C(=O)[C@@H]4[C@@H]12 (some centres undefined)",
    "measurement_name": "z-score",
    "experimental_result": "0.0739 (inactive)"
  },
  {
    "compound": "CCCCCCC#C[Si](O[C@H](c1ccccc1)c1cn([C@H](C)c2ccccc2)nn1)(C(C)C)C(C)C",
    "measurement_name": "z-score",
    "experimental_result": "0.994 (inactive)"
  },
  {
    "compound": "O=C1c2ccccc2[C@](Cc2ccccc2I)(C(=O)O)[C@H](c2ccc(CO)cc2)N1Cc1ccccc1C(F)(F)F",
    "measurement_name": "z-score",
    "experimental_result": "0.0662 (inactive)"
  },
  {
    "compound": "[N-]=[N+]=NCc1ccccc1C[C@]1(C(=O)NCc2ccccc2)COC(c2ccc(OCCCO)cc2)=N1",
    "measurement_name": "z-score",
    "experimental_result": "0.816 (inactive)"
  },
  {
    "compound": "O=C1O[C@@H](c2ccccc2)[C@@H](c2ccccc2)N2[C@@H](c3ccc(O)cc3)[C@]3(C(=O)Nc4ccc(C#CCCO)cc43)[C@@H](C(=O)N3CCCCCCC3)[C@H]12",
    "measurement_name": "z-score",
    "experimental_result": "0.67 (inactive)"
  },
  {
    "compound": "C[N+](C)(C)CCCC[C@@H]1NC(=O)[C@H]2C[C@@H](C(=O)O)[C@@H](c3cccc(OCCO)c3)N2C1=O",
    "measurement_name": "z-score",
    "experimental_result": "-0.362 (inactive)"
  },
  {
    "compound": "CCCCC(=C=CC[C@H](O)c1ccccc1OCCO)C[C@H](O)c1cc(Cl)cc(Cl)c1O",
    "measurement_name": "z-score",
    "experimental_result": "-1.33 (inactive)"
  },
  {
    "compound": "[N-]=[N+]=Nc1ccccc1[C@H]1OC(c2ccc(OCCCO)cc2)=N[C@@]1(CCS(=O)(=O)c1ccccc1)C(=O)N1CCOCC1",
    "measurement_name": "z-score",
    "experimental_result": "0.403 (inactive)"
  },
  {
    "compound": "[N-]=[N+]=Nc1ccccc1[C@@H]1OC(c2ccc(OCCCO)cc2)=N[C@]1(CCS(=O)(=O)c1ccccc1)C(=O)N1CCCCC1",
    "measurement_name": "z-score",
    "experimental_result": "1.15 (inactive)"
  },
  {
    "compound": "COc1ccc([Si](C)(C)[C@@H]2[C@@H](CCn3cc([C@H](O)c4ccccc4)nn3)O[C@]3(C(=O)N(C)c4ccccc43)[C@H]2C)cc1",
    "measurement_name": "z-score",
    "experimental_result": "0.324 (inactive)"
  },
  {
    "compound": "CC[C@@H]1C=C(C(=O)O)[C@H](c2ccc(C(C)C)cc2)N1S(=O)(=O)c1ccc(C)cc1",
    "measurement_name": "z-score",
    "experimental_result": "0.242 (inactive)"
  },
  {
    "compound": "CCOC(=O)C[C@H]1[C@H](OC(=O)c2ccc(C(=O)c3ccccc3)cc2)[C@@H](NC(=O)c2ccc3ccccc3n2)c2cc(OCCCO)ccc2N1C(=O)c1ccc2ccccc2n1",
    "measurement_name": "z-score",
    "experimental_result": "0.0242 (inactive)"
  },
  {
    "compound": "CCCNC(=O)[C@@]1(C)c2ccccc2C(=O)N(Cc2cc(C(F)(F)F)cc(C(F)(F)F)c2)[C@H]1c1ccc(CO)cc1",
    "measurement_name": "z-score",
    "experimental_result": "-0.25 (inactive)"
  },
  {
    "compound": "COC(=O)[C@@]1(Cc2ccc(OC)cc2)[C@H]2c3cc(C(=O)N(C)C)n(Cc4ccc(OC)c(OC)c4)c3C[C@H]2CN1C(=O)c1ccccc1",
    "measurement_name": "z-score",
    "experimental_result": "2.35 (inactive)"
  },
  {
    "compound": "COc1ccc([Si](C)(C)[C@H]2[C@H](CCO)O[C@@]3(C(=O)N(Cc4ccccc4)c4ccc(N5C(=O)COc6ccccc65)cc43)[C@@H]2C)cc1",
    "measurement_name": "z-score",
    "experimental_result": "-0.494 (inactive)"
  },
  {
    "compound": "CCCC[C@@H]1C[C@H]1[C@@H](NC(=O)c1ccco1)c1ccccc1",
    "measurement_name": "z-score",
    "experimental_result": "-15.3 (active)"
  },
  {
    "compound": "C#C[C@H](O[Si](C#CCCCCCC)(C(C)C)C(C)C)c1ccccc1",
    "measurement_name": "z-score",
    "experimental_result": "0.384 (inactive)"
  },
  {
    "compound": "C=C(C(=O)CC[C@@H](OC(=O)c1cccnc1)c1ccc(OCCO)cc1)C(C)C",
    "measurement_name": "z-score",
    "experimental_result": "-20.5 (active)"
  }
]
